Test system: Wild type
Experiment: S. aureus survival, RN4220 and DeltatarO strains – OD600, teichoic acid synthesis inhibitors, primary screen (AID 463173)
Details: S. aureus RN4220 wild type/DeltatarO growth, OD600, 18 h, hits give low values, screened at 18.75 µg/mL (by protocol)
In all, about 52,000 compounds went through this assay and about 1,700 (3.3%) were called active. Many of the other results were omitted from the sample, so actives are more common in it than they were.
READOUT: survival (%)
Respond numerically; units are % and should not be typed.

COc1ccc(S(=O)(=O)c2c(Nc3c(C)cccc3C)sc(C(=O)c3ccc4c(c3)OCO4)c2N)cc1; 74
CC(NC(=O)c1ccccc1)c1n[nH]c(=S)n1C (centres undefined); 109
Cc1c(Cl)cccc1NC(=O)c1ccc2c(c1)nnn2C1CCCC1; 120
CCn1c(=O)cc(SCC(=O)NCc2ccc(F)cc2Cl)c2ccccc21; 91
Cc1cc(C)cc(NC(=O)c2ccc3c(c2)nnn3C2CCCC2)c1; 121
COc1ccc(-c2cn3cccnc3n2)cc1NC(=O)c1ccccc1C(F)(F)F; 69

Q: Request: survival, test system Wild type, entry CCOC(=O)N1c2ccccc2Sc2ccccc21
Ans: 95

* * *

Tested on: Wild type
Assay: S. aureus survival, RN4220 and DeltatarO strains – OD600, teichoic acid synthesis inhibitors, primary screen (AID 463173)
Conditions: S. aureus RN4220 wild type/DeltatarO growth, OD600, 18 h, hits give low values, screened at 18.75 µg/mL (by protocol)
Among all 52,000 compounds or so, about 1,700 (3.3%) were called active. The list comes from a sample in which actives are over-represented; it also holds close analogues and randomly drawn compounds.
Quick reference: survival of the listed items.
Answer with a number only, understood to be in %.

Cc1ccc(S(=O)Cc2nc(-c3ccc(C(=O)NCc4cccc(C)c4)cc3)oc2C)cc1 (configuration not stated); 99
CCC(=O)N1CCN(c2ccc(NC(=O)c3ccccc3)cc2)CC1; 99
CC(=O)N1c2ccccc2C(C)(c2ccc(C)cc2)CC1(C)C (configuration not stated); -2
c1ccc(-c2cc3ccsc3s2)cc1; 111
O=C(NC1CCCC1)C(c1ccc(O)cc1)N(C(=O)Cn1nnc(-c2cccs2)n1)C1CCCC1 (configuration not stated); 100
CCCCC(=O)N1c2ccccc2C(C)(c2ccccc2)CC1(C)C (configuration not stated); -2
O=C(c1cccs1)N1CCCn2c1nc1ccccc12; 106
O=c1cc(O)c2ccccc2[nH]1; 135

Q: Checklist item: survival tested on Wild type, entry CC(=O)N1c2ccccc2N(C)C(=O)C1(C)C , value?
Ans: 105

Q: Hi! What's the reported survival for CCc1ccccc1NC(=O)N1CCN(C(=O)c2nsc3ccccc23)CC1 on Wild type?
Ans: -1

Q: Record COc1ccc(OC)c(NC(=O)CSc2ccnc(=O)[nH]2)c1 : what is its survival with Wild type?
Ans: 80

Q: Give survival (Wild type) of the following molecule: CCN1C(=O)C(O)(C(C)C(=O)c2ccccc2)c2ccccc21 (configuration not stated)
Ans: 111

* * *

System: Wild type
Assay: S. aureus survival, RN4220 and DeltatarO strains – OD600, teichoic acid synthesis inhibitors, primary screen (AID 463173)
Conditions: S. aureus RN4220 wild type/DeltatarO growth, OD600, 18 h, hits give low values, screened at 18.75 µg/mL (by protocol)
The campaign covered roughly 52,000 compounds. About 1,700 (3.3%) were called active. The entries come from a sample that favours actives as a whole.
// returns Not fulfilled unless survival is strictly below 60%, in which case Fulfilled

See these solved cases before continuing.
Cc1ccc(CNC(=O)c2ccc3oc(=O)n(Cc4ccccc4)c3c2)cc1; Fulfilled
COc1cccc(CNC(=O)c2ccc3oc(=O)n(Cc4ccccc4)c3c2)c1; Fulfilled
O=C(Nc1cccc(F)c1)c1ccc2oc(=O)n(Cc3ccccc3)c2c1; Not fulfilled
COC(=O)c1ccc2c(c1)N(CC(=O)Nc1cccc(C(F)(F)F)c1)C(=O)c1ccccc1S2; Not fulfilled

Q: Answer whether the compound COc1ccc(NC(=O)c2cc3c(-c4ccccc4F)nn(C)c3s2)c(OC)c1 has survival strictly less than 60%
Ans: Fulfilled

Q: Please check: survival for O=C(CCn1nc(-c2ccccc2)c2ccccc2c1=O)Nc1ccccc1 , strictly under 60% or not?
Ans: Not fulfilled

Q: Take the compound CN(Cc1ccccc1)C(=O)C1CCC(CNS(=O)(=O)c2ccc3c(c2)CCCC(=O)N3)CC1 (configuration not stated) and say whether its survival is less than 60%.
Ans: Not fulfilled

* * *

Tested on: Wild type
Assay: S. aureus survival, RN4220 and DeltatarO strains – OD600, teichoic acid synthesis inhibitors, primary screen (AID 463173)
Settings: S. aureus RN4220 wild type/DeltatarO growth, OD600, 18 h, screened at 18.75 µg/mL (by protocol)
Screen size: about 52,000 compounds; about 1,700 (3.3%) were called active. Rule as the data show it: active = survival mostly below about 52% (no sharp cut-off); inactive = mostly above about 56%. The list comes from a sample in which actives are over-represented; it also holds close analogues and randomly drawn compounds.
In this exercise, the only acceptable responses are TRUE (active), FALSE (inactive)

Worked cases, answers included:
O=C(NCCc1ccccc1)c1cnn(-c2ccc(F)cc2)c1-n1cccc1; FALSE
COc1ccc2nc(SCC(O)c3cccc(Br)c3)[nH]c2c1 (stereo unspecified); FALSE
Brc1ccc2nc(SCCOc3ccccc3)[nH]c2c1; TRUE
CC(=O)Nc1ccc(NC(=O)c2c(C)nn(-c3ccccc3)c2-n2cccc2)cc1; FALSE
Cc1ccc(CCNC(=O)c2c(C)nn(-c3ccc(F)cc3)c2-n2cccc2)cc1; FALSE

Below: the item to evaluate.
Q: // return assay outcome for CCOc1ccccc1CNC(=O)c1cnn(-c2ccc(C)cc2)c1-n1cccc1
Ans: TRUE

* * *

Test system: Wild type
Experiment: S. aureus survival, RN4220 and DeltatarO strains – OD600, teichoic acid synthesis inhibitors, primary screen (AID 463173)
Settings: S. aureus RN4220 wild type/DeltatarO growth, OD600, 18 h, hits give low values, screened at 18.75 µg/mL (by protocol)
In all, about 52,000 compounds went through this assay and about 1,700 (3.3%) were called active. For the sample, actives were picked, then their nearest neighbours and some compounds at random.
Catalogue of survival readings, one per entry.
Provide the reading as a plain figure in %.

Here are 2 compounds together with their reported answers.
COc1ccccc1OCCn1c(COc2cc(C)ccc2C)nc2ccccc21; 87
COc1cccc(OCc2nc3ccccc3n2CCOc2ccccc2C)c1; 55

--- query ---
Q: GET /values?readout=survival&item= COc1cccc(Cn2c(=O)n(-c3cccc(Cl)c3C)c(=O)c3c4c(sc32)CN(C(C)=O)CC4)c1
Ans: 75

* * *

Test system: Wild type
Assay: S. aureus survival, RN4220 and DeltatarO strains – OD600, teichoic acid synthesis inhibitors, primary screen (AID 463173)
Details: S. aureus RN4220 wild type/DeltatarO growth, OD600, 18 h, hits give low values, screened at 18.75 µg/mL (by protocol)
The campaign covered roughly 52,000 compounds. About 1,700 (3.3%) were called active. The sample as a whole holds a higher share of actives than the screen did.
READOUT: survival

Q: What value of survival on Wild type does N#C/C(=C/C=C/c1ccco1)c1nc2ccccc2[nH]1 have?
Ans: 113% (inactive)

Q: Recorded survival for Cc1ccc(NC(=O)N(Cc2cn(C)c3ccccc23)C2CCCCC2)cc1C with Wild type, please?
Ans: -1% (active)

Q: Param readout = survival; param system = Wild type; param query = Cn1cc(CN(C(=O)Nc2ccc(Cl)c(Cl)c2)C2CCCCC2)c2ccccc21 ; response: value
Ans: 60% (inactive)

Q: Provide value of survival for this record tested with Wild type: CCOC(=O)C1CCC(CN(Cc2ccc(Cl)cc2)S(=O)(=O)c2cccc(Cl)c2C)CC1 (configuration not stated)
Ans: 82% (inactive)

Q: Give the reported survival for COc1cccc(C(=O)N(Cc2nc(-c3ccc(Cl)cc3)no2)C(C)C)c1OC (system: Wild type).
Ans: 46% (inactive)

Q: Write down the reported survival of CC(=O)c1ccc(N2CCN(S(=O)(=O)c3ccc(-c4cc(C)no4)s3)CC2)cc1 , test system: Wild type.
Ans: -6% (active)

Q: # get_value(readout= survival, system= Wild type) for Cc1ccc(-c2noc(CNC(=O)c3ccc(C(C)(C)C)cc3)n2)cc1
Ans: 89% (inactive)

Q: Query for Wild type: what survival does the record show for Cc1ccc(-c2noc(CN(C(=O)c3ccc(C(C)(C)C)cc3)C(C)C)n2)cc1 ?
Ans: -1% (active)

Q: Find survival (Wild type) for the entry COc1ccc(-c2c3c(=O)n(C)c(=O)n(C)c3c3n2-c2ccccc2NC3c2ccccc2OC)cc1 (configuration not stated)
Ans: 64% (inactive)

Q: Query survival on Wild type for COc1ccc(-c2c3c(=O)n(C)c(=O)n(C)c3c3n2-c2ccccc2NC3c2ccc(OC)cc2)cc1 (configuration not stated)
Ans: 8% (active)

Q: Record Cc1ccccc1NS(=O)(=O)c1ccc2[nH]cc(C(=O)N3CCCC3)c(=O)c2c1 : what is its survival with Wild type?
Ans: 99% (inactive)

Q: Under Wild type: survival value of CCCn1c(SCC(=O)N2CCCC2)nnc1C(C)C ?
Ans: 105% (inactive)
